# Tested on: HepG2 cells
# methodSummary: HepG2 cytotoxicity assay
# experimentalConditions: unified HepG2 value across the three screens
Class class 1: Unified cytotox at least 50 µM. Class class 0: Unified cytotox below 50 µM.

[[record]]
compound = "COc1ccc(Cl)cc1NC(=O)CN(C)C(=O)c1cnn(-c2ccccc2)n1 [TCMDC-125457]"
group = "class 1"

[[record]]
compound = "COc1cc(OC)c(NC(=O)C2c3ccccc3C(=O)N(CC(C)C)C2c2cccs2)cc1Cl (centres unmarked) [TCMDC-124760]"
group = "class 1"

[[record]]
compound = "COc1ccc2ncc(F)c(CCN3CC[C@H](NCc4cc(C#N)c5c(c4)OCCO5)[C@H](O)C3)c2c1 [TCMDC-136207]"
group = "class 0"

[[record]]
compound = "COc1cc(NC2=NS(=O)(=O)c3cc(Cl)ccc3N2C)cc(OC)c1OC.O=C(O)C(F)(F)F [TCMDC-134208]"
group = "class 1"

[[record]]
compound = "CCN(CC)/C(=N\\CCCCCC/N=C(\\NC(=N)c1ccc(Cl)cc1)N(CC)CC)NC(=N)c1ccc(Cl)cc1 [TCMDC-131806]"
group = "class 0"

[[record]]
compound = "COc1cc(OC)cc(-c2nn(-c3ccc([N+](=O)[O-])cc3C#N)c(=S)n2Cc2ccco2)c1 [TCMDC-134715]"
group = "class 1"

[[record]]
compound = "COc1ccc2nccc(N3CCC(NCCNCc4ccc5c(n4)NC(=O)CO5)C3)c2n1.Cl (centres unmarked) [TCMDC-134548]"
group = "class 0"

[[record]]
compound = "COCCn1c(-c2cccc(Cl)c2)nn(-c2ccc([N+](=O)[O-])cc2Cl)c1=S [TCMDC-135130]"
group = "class 1"

[[record]]
compound = "COc1ccc(C=C2SC(=N)N(c3ccccc3OC)C2=O)cc1 [TCMDC-124486]"
group = "class 0"

[[record]]
compound = "COc1ccc(C23Oc4cc(OC)cc(OC)c4C2(O)C2(CC3c3ccccc3)SCCCS2)cc1 (centres unmarked) [TCMDC-132098]"
group = "class 1"

[[record]]
compound = "O=C(Nc1cccc(-c2cccc(-c3ccc(F)cc3)n2)c1)c1ccc([N+](=O)[O-])o1 [TCMDC-124807]"
group = "class 0"

[[record]]
compound = "COc1cc(OC)nc(C(Sc2ccc(NC(=O)c3cccs3)cc2)c2ccccc2)n1 (centres unmarked) [TCMDC-124257]"
group = "class 1"

